# maps each entry to its % parasite recognition
Molecular target: erythrocytes infected with P. falciparum field isolate 10975
Experiment: flow cytometry, staining of IEs

binder	u	% parasite recognition
MGC37 (antibody) VH: EVQLVESGGDLVQPGGSLRLSCAASGFTFRNYWMSWVRQTPGKGLEWVANIRQDGSEKYYVDSVKGRFTISRDNAKNLLYLQMNSLRAEDTAVYYCVRDKFCSDENHMHVADDLPRPSISPEPGTVIPLGSHVTFVCRGPVGVQTFRLEKDRRSTYNDTEDVSQPSPSESEARFRIDSVTEGNAGLYRCVYYKPPKWSDQSDFLELLVKGEDVTWALFPHCGADGEDSDYYMDVWGKGTTVTVSS VL: DIQLTQSPSTLSASVGDRVTISCRASQRLSRSLAWYQQRPRKAPNLLIYKASPLEIGGPSRFTGSGSGTEFTLTISSLQPDDSATYYCQQYSNYSYSFGQGTKLEIR	%	7.5
MGC17 (antibody) VH: EVQLVESGGGLVQPGGSLKLSCVASGFNFRKSWMSWVRQAPGKGLEWVANIREDGSKAYYVDSVKGRFTVSRDNAKNSLYLQINSLRADDTAVYYCARDRFCSDDEDHSHGAEDLPRPSISAEEGTVIPLGSRLTFVCRGPVGVHTFRLERDRRSTYNDTEDVSHPSPSESEARFRIDSVSEGNAGLYRCVYYKSPEWSKQSDYLELLVKGQEVTWALFTSCGGDGEVPDYDMDVRGKGTTVTVSS VL: DIVMTQSPDSLAVSLGERATINCKSSQSVLYRSKNKKYLAWFQQRPGQPPKVLIYWTSTRASGVPDRFSGSGSGTDFTLTISSLQADDVAVYYCQQYFIFPYTFGQGTKLEIR	%	1.5
MGD47 (antibody) VH: QVRLQESGPGLVKPSGTLSLTCTVSGGSISGYKWWSWVRQAPGKGLEWIGQVYDDGDTNYNPDLKGRVALSVDKSKSRFSLSLASVTAADTAIYFCATISPLRPQSDTGDLPRPSISAEPGTAIPLGSQVTFVCRGPIGVQTFRLERESRALYNDSEDVSQVSPSASEARFRIDSVSEGNAGPYRCIYYKARRWSDQSDYLELLVKGEDVTWALPQSQLAPRACPQEDLNISTDIFSTNVWGKGTTVTVSS VL: AIRMTQSPASLSASVGDRVTITCRTSQDVGNYLDWYQQKPGKAPKLLIHGASTLQAGVPSRFNGSGSGTDFTLGISCVQSGDFAIYYCQQYYTSPPVFGQGTRLEIK	%	11.2
MGD33 (antibody) VH: HVQLQESGPGLVKPSETLSLSCAVTGGSITSSKWWTWVRQGPDKGLEWIGKIYHNGTTNYNPSLKSRVAMSVDKSKNQFSLRLTSVTAADTAVYYCATASPFKSHHRTTEKLPRPSISAEPGTVIPLGSRVTFVCRGPVGVQTFRLERETRSTYNDTEDVSQVSPSESEARFRIDSVSEGYAGPYRCVYYKAPKWSEQSDYLDLLVKGEDVTWALTQPQLDPRACPQGDLRMSTDIYCMDVWGKGTTVTVSS VL: AIRLTQSPSSLSASIGDRVTITCRASQDISTYLAWYQQESGKAPRLLIFAASSLQTGVPSRFSGSGSGTDFTLTISGLQSEDFATYYCQQYYCFPPDFGQGTRLDIK	%	14.2
